B1: Poly(rC)-binding protein 1, residues 278 to 350; numbered along this chain, Q15365 (parent)
chain: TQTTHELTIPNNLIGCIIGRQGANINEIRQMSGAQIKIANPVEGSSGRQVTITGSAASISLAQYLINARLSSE

Variants of: B1
Test method notes: abundance fitness (aPCA) (normalised: wild type 0, dead -1); higher = more abundant; growth selection in yeast, the domain comes from the species named
Experimental conditions: Homo sapiens
Where abundance fitness equals or exceeds -0.1, the correct label is yes; where it does not, the label is no.

Sample answers from the record:
T3E | yes
E27G | no
T4F | no

Query string: abundance fitness >= -0.1 for G22H ?
Result string: no

Query string: Is it the case that P41D has abundance fitness reaching or exceeding -0.1?
Result string: yes

Query string: Is abundance fitness for S32D at or above -0.1?
Result string: no

Query string: Could you verify whether the entry Q35H shows abundance fitness of no less than -0.1?
Result string: yes

Query string: Could you please find out whether T53N has abundance fitness that meets -0.1 or exceeds it?
Result string: no

Query string: I'd appreciate it if you could say whether G44W has abundance fitness at least equal to -0.1.
Result string: no

Query string: Assess whether reported abundance fitness for R69S sits at -0.1 or higher.
Result string: yes

Query string: Say whether E43G shows abundance fitness of -0.1 or more.
Result string: no

Query string: Reported abundance fitness reaches at least -0.1 for I66V ?
Result string: no

Query string: Exam item: decide whether the reported abundance fitness for S60A is at least -0.1.
Result string: yes

Query string: # bool: abundance fitness of N40A >= -0.1
Result string: yes

Query string: Given N67R , state whether its abundance fitness is at least -0.1.
Result string: no

Query string: # check: abundance fitness of A68L is greater than or equal to -0.1
Result string: no

Query string: # bool: abundance fitness of I25A >= -0.1
Result string: no
